# System: NCI-H3122
# METHOD DESCRIPTION: relative viability (nuclei count vs DMSO), 5 days (fraction); higher = more cells survive
# APPLIED CONDITIONS: first compound 0.005 µM
ASSAY METRIC: relative viability
Answers are plain numbers.

Nc1ccn([C@@H]2O[C@H](CO)[C@@H](O)[C@@H]2O)c(=O)n1 [Cytarabine] + C[C@]1(O)C[C@@H](c2nc(-c3ccc4ccc(-c5ccccc5)nc4c3)c3c(N)nccn32)C1 [Linsitinib] (partner 1 µM): 0.995
COc1cc2nccc(Oc3ccc(NC(=O)Nc4cc(C)on4)c(Cl)c3)c2cc1OC [Tivozanib] + Nc1nc2[nH]cc(CCc3ccc(C(=O)N[C@@H](CCC(=O)O)C(=O)O)cc3)c2c(=O)[nH]1 [Pemetrexed] (partner 0.2 µM): 0.197
COc1cc2nccc(Oc3ccc(NC(=O)Nc4cc(C)on4)c(Cl)c3)c2cc1OC [Tivozanib] + CC(C)C[C@H](NC(=O)[C@H](Cc1ccccc1)NC(=O)c1cnccn1)B(O)O [Bortezomib] (partner 0.002 µM): 0.99

Let us examine a further case.
Task item: Would you please give the reported relative viability of Nc1ccn([C@@H]2O[C@H](CO)[C@@H](O)[C@@H]2O)c(=O)n1 [Cytarabine] + O=C(c1cc(Cc2n[nH]c(=O)c3ccccc23)ccc1F)N1CCN(C(=O)C2CC2)CC1 [Olaparib] (partner 8 µM) with NCI-H3122?
Reply: 0.545
